Catalogue of Activity values
# Tested on: Candida albicans
# testDescription: Antimicrobial activity against Candida albicans assessed as 99.9 % growth inhibition after 18 hrs by zone-of-inhibition assay
# Type: functional

molecule	observed
Cc1cc(O)c2c(c1)C(=O)C=CC2=O	20 µg/mL
C=C(C)[C@@H]1CC[C@]2(C)CC[C@]3(C)[C@H](CC[C@@H]4[C@@]5(C)CC[C@H](O)C(C)(C)[C@@H]5CC[C@]43C)[C@@H]12	>1000 µg/mL

Record Cc1cc(O)c2c(c1)[C@@H](O)CCC2=O , field Activity: >1000 µg/mL

Record COC1=CC(=O)c2cc(C)cc(O)c2C1=O , field Activity: >1000 µg/mL

Record COC1=CC(=O)c2c(O)cc(C)cc2C1=O , field Activity: 800 µg/mL

Record COc1cc2c[n+](C)c3c4cc5c(cc4ccc3c2cc1OC)OCO5.[Cl-] [NITIDINE CHLORIDE] , field Activity: 200 µg/mL

Record CC12C(=O)c3cccc(O)c3C(=O)C1CC1=C2C(=O)c2c(O)cccc2C1=O (stereo not drawn) , field Activity: 3 µg/mL

###

# Test system: Mycolicibacterium smegmatis
# testDescription: Antimicrobial activity against Mycobacterium smegmatis assessed as 99.9 % growth inhibition after 18 hrs by zone-of-inhibition assay
# Assay type: functional
Catalogue of Activity values

The molecule C=C(C)[C@@H]1CC[C@]2(C)CC[C@]3(C)[C@H](CC[C@@H]4[C@@]5(C)CC[C@H](O)C(C)(C)[C@@H]5CC[C@]43C)[C@@H]12 , tested on Mycolicibacterium smegmatis, showed Activity of >1000 µg/mL

The molecule COC1=CC(=O)c2c(O)cc(C)cc2C1=O , tested on Mycolicibacterium smegmatis, showed Activity of 800 µg/mL

The molecule CC1=CC(=O)c2c(O)ccc(-c3ccc(O)c4c3C(=O)C(C)=CC4=O)c2C1=O , tested on Mycolicibacterium smegmatis, showed Activity of 80 µg/mL

The molecule Cc1cc(O)c2c(c1)[C@@H](O)CCC2=O , tested on Mycolicibacterium smegmatis, showed Activity of >1000 µg/mL

The molecule COc1c(O)cc2ccc(=O)oc2c1OC , tested on Mycolicibacterium smegmatis, showed Activity of >1000 µg/mL

The molecule COC(=O)c1c(O)cc(C)cc1O , tested on Mycolicibacterium smegmatis, showed Activity of >1000 µg/mL

The molecule CC1=CC(=O)c2c(O)cccc2C1=O , tested on Mycolicibacterium smegmatis, showed Activity of >1000 µg/mL

The molecule COc1cc2c[n+](C)c3c4cc5c(cc4ccc3c2cc1OC)OCO5.[Cl-] [NITIDINE CHLORIDE] , tested on Mycolicibacterium smegmatis, showed Activity of >5000 µg/mL

The molecule CC1=CC(=O)c2c(ccc(C3=C(C)C(=O)c4cccc(O)c4C3=O)c2O)C1=O , tested on Mycolicibacterium smegmatis, showed Activity of 20 µg/mL

The molecule COC1=CC(=O)c2cc(C)cc(O)c2C1=O , tested on Mycolicibacterium smegmatis, showed Activity of >1000 µg/mL

###

Catalogue of IC50 values
# Test system: Cryptococcus neoformans
# testDescription: Antifungal activity against Cryptococcus neoformans after 18 hrs by zone-of-inhibition assay
# Format: functional, organism-based
# experimentalContext: Cryptococcus neoformans, 18 h

// solved cases for IC50 follow
Cc1cc(O)c2c(c1)C(=O)C=CC2=O 0.3 µg/mL
COC(=O)c1c(O)cc(C)cc1O > 1000 µg/mL

Then this compound:
Record COC1=CC(=O)c2cc(C)cc(O)c2C1=O , field IC50: > 1000 µg/mL

###

# System: Staphylococcus aureus
# testDescription: Antimicrobial activity against Staphylococcus aureus assessed as 99.9 % growth inhibition after 18 hrs by zone-of-inhibition assay
# Type: functional
reportedProperty: Activity

// solved cases for Activity follow
compound	measuredTarget	Activity
CC1=CC(=O)c2c(O)ccc(-c3ccc(O)c4c3C(=O)C(C)=CC4=O)c2C1=O	Staphylococcus aureus	300 µg/mL
COC1=CC(=O)c2c(O)cc(C)cc2C1=O	Staphylococcus aureus	400 µg/mL
CC12C(=O)c3cccc(O)c3C(=O)C1CC1=C2C(=O)c2c(O)cccc2C1=O (stereo not drawn)	Staphylococcus aureus	>800 µg/mL

Record COC1=CC(=O)c2cc(C)cc(O)c2C1=O , field Activity: >1000 µg/mL

Record COc1cc2c[n+](C)c3c4cc5c(cc4ccc3c2cc1OC)OCO5.[Cl-] [NITIDINE CHLORIDE] , field Activity: 5000 µg/mL

Record COc1c(O)cc2ccc(=O)oc2c1OC , field Activity: >1000 µg/mL

###

# Tested on: Micrococcus luteus
# testDescription: Antimicrobial activity against Micrococcus luteus assessed as 99.9 % growth inhibition after 18 hrs by zone-of-inhibition assay
# Format: functional
reportedProperty: Activity

Record COC(=O)c1c(O)cc(C)cc1O , field Activity: >1000 µg/mL

Record CC12C(=O)c3cccc(O)c3C(=O)C1CC1=C2C(=O)c2c(O)cccc2C1=O (stereo not drawn) , field Activity: >800 µg/mL

###

# Test system: Mycolicibacterium smegmatis
# testDescription: Antimicrobial activity against Mycobacterium smegmatis assessed as 99.9 % growth inhibition after 18 hrs by zone-of-inhibition assay
# Type: functional
Catalogue of Activity values
Please state the figure in µg/mL; there is no need to write the unit.

Record CC12C(=O)c3cccc(O)c3C(=O)C1CC1=C2C(=O)c2c(O)cccc2C1=O (stereo not drawn) , field Activity: 400

Record Cc1cc(O)c2c(c1)C(=O)C=CC2=O , field Activity: 600

###

# testDescription: Cytotoxicity against human HUVEC
# Assay type: cell-based
# experimentalContext: HUVEC cells, read-out: ED50 (the source's name)
Catalogue of CC50 values
Please state the figure in µg/mL; there is no need to write the unit.

// solved cases for CC50 follow
COC1=CC(=O)c2c(O)cc(C)cc2C1=O 2
CC1=CC(=O)c2c(O)ccc(-c3ccc(O)c4c3C(=O)C(C)=CC4=O)c2C1=O 2.2

Then this compound:
Record COC1=CC(=O)c2cc(C)cc(O)c2C1=O , field CC50: 5.5

###

Catalogue of Activity values
# Test system: Micrococcus luteus
# testDescription: Antimicrobial activity against Micrococcus luteus assessed as 99.9 % growth inhibition after 18 hrs by zone-of-inhibition assay
# Type: functional
Please state the figure in µg/mL; there is no need to write the unit.

compound	resultUnits	observed
COc1cc2c[n+](C)c3c4cc5c(cc4ccc3c2cc1OC)OCO5.[Cl-] [NITIDINE CHLORIDE]	µg/mL	5000

Record Cc1cc(O)c2c(c1)C(=O)C=CC2=O [RAMENTACEONE] , field Activity: 1000

###

Catalogue of IC50 values
# System: Cryptococcus neoformans
# testDescription: Antifungal activity against Cryptococcus neoformans after 18 hrs by zone-of-inhibition assay
# Type: functional, organism-based
# experimentalContext: Cryptococcus neoformans, 18 h
Please state the figure in mg/L; there is no need to write the unit.

compound	resultUnits	IC50
CC12C(=O)c3cccc(O)c3C(=O)C1CC1=C2C(=O)c2c(O)cccc2C1=O (centres undefined) [ZEYLANONE]	mg/L	10

Record COC1=CC(=O)c2c(O)cc(C)cc2C1=O , field IC50: 50

Record CC1=CC(=O)c2c(O)ccc(-c3ccc(O)c4c3C(=O)C(C)=CC4=O)c2C1=O [MARITINONE] , field IC50: 20

Record CC1=CC(=O)c2c(ccc(C3=C(C)C(=O)c4cccc(O)c4C3=O)c2O)C1=O [CHITRANONE] , field IC50: 3

Record CC1=CC(=O)c2c(O)cccc2C1=O [PLUMBAGIN] , field IC50: 20

###

# testDescription: Cytotoxicity against human HUVEC
# Assay type: cell-based
# experimentalContext: HUVEC cells, read-out: ED50 (the source's name)
Catalogue of CC50 values

compound	reportedProperty	observed
COC(=O)c1c(O)cc(C)cc1O	CC50	> 5 µg/mL
Cc1cc(O)c2c(c1)[C@@H](O)CCC2=O	CC50	> 5 µg/mL
C=C(C)[C@@H]1CC[C@]2(C)CC[C@]3(C)[C@H](CC[C@@H]4[C@@]5(C)CC[C@H](O)C(C)(C)[C@@H]5CC[C@]43C)[C@@H]12	CC50	> 5 µg/mL
CC1=CC(=O)c2c(ccc(C3=C(C)C(=O)c4cccc(O)c4C3=O)c2O)C1=O	CC50	2.1 µg/mL
COc1c(O)cc2ccc(=O)oc2c1OC	CC50	> 5 µg/mL
Cc1cc(O)c2c(c1)C(=O)C=CC2=O	CC50	5.7 µg/mL

Record CC1=CC(=O)c2c(O)cccc2C1=O , field CC50: 0.4 µg/mL

Record COc1cc2ccc(=O)oc2cc1O , field CC50: > 5 µg/mL

Record CC12C(=O)c3cccc(O)c3C(=O)C1CC1=C2C(=O)c2c(O)cccc2C1=O (centres undefined) , field CC50: 3.3 µg/mL
